target: alpha-glucosidase (Oryza sativa, rice) (UniProt Q653V4); assay: Counterscreen for Glucocerebrosidase Inhibitors: qHTS Assay for Rice alpha-Glucosidase at pH 5.0 (AID 997); settings: rice alpha-glucosidase enzyme activity; series mostly up to 76.9 µM;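 further: 0% = full activity with enzyme and -100% = basal without enzyme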
Activity calls are given as the source filed them. The call rests on the fitted dose curve; in most records, active means well fitted curve in the direction sought with a large enough effect; inconclusive means small, poorly fitted or top-dose-only effect, or another doubt; inactive means no such curve, though single readings can be large or run the other way.
propertyMeasured: outcome

CN(C)[C@@H]1C(=O)C(C(N)=O)=C(O)[C@]2(O)C(=O)C3=C(O)c4c(O)ccc(Cl)c4[C@H](O)[C@H]3C[C@@H]12 ... inactive
CC(C)(C)NC[C@H](O)c1cc(O)cc(O)c1 ... inactive
C[C@@H](CCc1ccccc1)NC[C@H](O)c1ccc(O)c(C(N)=O)c1 ... inactive
Oc1cc2c(c(Cl)c1O)CCNC[C@H]2c1ccccc1 ... inactive
C[C@@H](CN(C)C)CN1c2ccccc2CCc2ccccc21 ... inactive

// outcome lookup, compound = "O=C(c1ccccc1)c1ccc2n1CC[C@H]2C(=O)O" , result: inactive

// outcome lookup, compound = "Cn1cc(C(F)(F)F)nc1-c1ccc(OC[C@@H](O)CNCCOc2ccc(O)c(C(N)=O)c2)cc1" , result: inactive

// outcome lookup, compound = "CN(C)CC[C@@H](c1ccccc1)c1ccccn1" , result: inactive

// outcome lookup, compound = CN1[C@@H]2CC[C@H]1CC(OC(=O)[C@@H](O)c1ccccc1)C2 (stereo not given in full) , result: inactive

// outcome lookup, compound = "CC[C@H](NC(C)C)[C@H](O)c1ccc(O)c(O)c1" , result: inactive

// outcome lookup, compound = "COc1ccc([C@H]2Sc3ccccc3N(CCN(C)C)C(=O)[C@H]2OC(C)=O)cc1" , result: inactive

// outcome lookup, compound = "O=C(O)[C@H]1CCCN(CCC=C(c2ccccc2)c2ccccc2)C1" , result: inactive

// outcome lookup, compound = "NC(=NCc1ccc(Cl)c(Cl)c1)NC(=O)c1nc(Cl)c(N)nc1N" , result: inactive

// outcome lookup, compound = "Cc1ccccc1[C@@H](OCCN(C)C)c1ccccc1" , result: inactive

// outcome lookup, compound = "CCN(CC)CCC[C@H](C)Nc1ccnc2cc(Cl)ccc12" , result: inactive

// outcome lookup, compound = "N[C@@H](CO)C(=O)NNCc1ccc(O)c(O)c1O" , result: inactive

// outcome lookup, compound = "C[C@@](N)(Cc1ccc(O)c(O)c1)C(=O)O" , result: inactive

// outcome lookup, compound = "CC(C)NC[C@H](O)c1cc(O)cc(O)c1" , result: inactive

// outcome lookup, compound = "CC(C)COC[C@H](CN(Cc1ccccc1)c1ccccc1)N1CCCC1" , result: inactive

// outcome lookup, compound = "CC[C@]1(C)CC(=O)NC1=O" , result: inactive

----------
test: qHTS Assay for Lipid Storage Modulators (AID 1519); settings: Drosophila S3 cells, BODIPY lipid droplet/cell ratio, laser cytometry; measured here: cell count channel max response; cells loaded with oleic acid
Results filed as inconclusive are left out.
propertyMeasured: max response (%)
Give a bare numeral; the unit % is implied.

COc1ccccc1CN1CCCC2(CCN(C(C)=O)CC2)C1 ... 7.93
O=c1c(O)c(-c2ccc(O)cc2)oc2ccccc12 ... -12.3
COc1ccccc1CN1CCC2(CC1)CCN(C(=O)c1c(C)noc1C)CC2 ... 11.3
CN1CCN(c2ncncc2-c2ccc(N(C)C)cc2)CC1 ... 19.8

// max response lookup, molecule = O=c1c(O)c(-c2ccc(O)c(O)c2)oc2c(OC3OC(CO)C(O)C(O)C3O)c(O)cc(O)c12 (stereo unspecified) , result: -2.75

// max response lookup, molecule = "COCC(=O)N1CCC[C@@]2(CCN(Cc3cc(C(F)(F)F)cc(C(F)(F)F)c3)C2)C1" , result: 7.6

// max response lookup, molecule = "O=C(c1csnn1)N1CCC2(CC1)CN(c1ncccn1)C2" , result: -0.721

// max response lookup, molecule = "COC(=O)CCCOc1ccc(Cl)cc1Cl" , result: 14

// max response lookup, molecule = "COc1cccc(Nc2ncc3nc(C)c(=O)n(CCC#N)c3n2)c1" , result: -22.6

// max response lookup, molecule = "CS(=O)(=O)Nc1cccc(-c2ccc3ncnc(Nc4ccc(F)cc4)c3c2)c1" , result: -27.4

// max response lookup, molecule = "COc1ccccc1CNc1ncnc2ccc(-c3cccc(C#N)c3)cc12" , result: -3.32
